# System: Puccinia recondita f. sp. tritici
# ASSAY TEXT: Test C: test suspension sprayed on wheat seedlings, inoculated next day with Puccinia recondita f. sp. tritici (wheat leaf rust), visual disease rating
# Type: in vivo
# TEST PARAMETERS: Rate 10 ppm test suspension, relative to the controls
# From the text: General protocol for preparing test suspensions for Tests A-C: the test compounds were first dissolved in acetone in an amount equal to 3% of the final volume and then suspended at the desired concentration (in ppm) in acetone and purified water (50/50 mix by volume) containing 250 ppm of the surfactant PEG400 (polyhydric alcohol esters). The resulting test suspensions were then used in Tests A-C. The test suspension was sprayed to the point of run-off on wheat seedlings. […]
METRIC NAME: Test C rating (% disease control) (%)
Please state the figure in %; there is no need to write the unit.

Known Test C rating (% disease control) results, listed for orientation:
Query block: For CCON=Cc1cnn(Cc2ccc(-c3noc(C(F)(F)F)n3)cc2)c1 , write its Test C rating (% disease control).
Result block: 100

Query block: Give a short answer stating reported Test C rating (% disease control) for O=C(OCc1ccccn1)c1cnn(Cc2ccc(-c3noc(C(F)(F)F)n3)cc2)c1 .
Result block: 100

Query block: Read off the recorded Test C rating (% disease control) for FC(F)(F)c1nc(-c2ccc(Cn3cc4ncccc4n3)cc2)no1
Result block: 100

Query block: Answer with the recorded Test C rating (% disease control) of FC(F)(F)c1nc(-c2ccc(Cn3cc4c(I)ccnc4n3)cc2)no1 only.
Result block: 99

Query block: Let me know recorded Test C rating (% disease control) for CCOC(=O)c1cnn(Cc2ccc(-c3noc(C(F)(F)F)n3)cn2)c1 , thanks.
Result block: 96

Query block: Report Test C rating (% disease control), nothing else, for this compound: C=CCOC(=O)c1cnn(Cc2cc(OC)c(-c3noc(C(F)(F)F)n3)s2)c1
Result block: 0

Continuing:
Query block: Hello, please tell me recorded Test C rating (% disease control) for this one: FC(F)(F)c1nc(-c2ccc(Cn3cc(I)cn3)cc2)no1
Result block: 68

Query block: Please give the documented Test C rating (% disease control) of Nc1cnn(Cc2ccc(-c3noc(C(F)(F)F)n3)cc2)c1
Result block: 0

Query block: Using known records, supply Test C rating (% disease control) for COCC(COC)NC(=O)c1csc(Cc2ccc(-c3noc(C(F)(F)F)n3)cc2)n1
Result block: 99

###

# Tested on: Phakopsora pachyrhizi
# ASSAY TEXT: Test A: test suspension sprayed on soybean seedlings, inoculated next day with Phakopsora pachyrhizi (Asian soybean rust), visual disease rating
# Type: in vivo
# TEST PARAMETERS: Rate 10 ppm test suspension, relative to the controls
Listed below: Test A rating (% disease control) values for each entry.
Answer with the value and then the unit.

Example compounds with recorded Test A rating (% disease control):
Query block: Give recorded Test A rating (% disease control). N#Cc1cnn(CCCc2ccc(-c3noc(C(F)(F)F)n3)cc2)c1
Result block: 100%

Query block: // fetch Test A rating (% disease control) given entry CCCOC(=O)c1cnn(C(C)c2ccc(-c3noc(C(F)(F)F)n3)s2)c1 (racemic)
Result block: 100%

Query block: Note down Test A rating (% disease control) recorded for CCON=Cc1cnn(Cc2ccc(-c3noc(C(F)(F)F)n3)cc2)c1
Result block: 100%

***
Query block: Read off the recorded Test A rating (% disease control) for CN(C)C(=O)c1cnn(CCCc2ccc(-c3noc(C(F)(F)F)n3)cc2)c1
Result block: 100%

Query block: Note Test A rating (% disease control) for the compound shown: CCOC(=O)c1cncn(Cc2ccc(-c3noc(C(F)(F)F)n3)cc2)c1=O
Result block: 100%

Query block: Read off the recorded Test A rating (% disease control) for N#CCNC(=O)c1coc(COc2ccc(-c3noc(C(F)(F)F)n3)cc2)n1
Result block: 84%

Query block: Indicate the recorded Test A rating (% disease control) value for this compound: Nc1nn(Cc2ccc(-c3noc(C(F)(F)F)n3)cc2)c2ncccc12
Result block: 99%

Query block: Supply reported Test A rating (% disease control) belonging to this compound: C=CCOC(=O)c1cnn(Cc2cc(OC)c(-c3noc(C(F)(F)F)n3)s2)c1
Result block: 0%
